biological target: Voltage-gated N-type calcium channel alpha-1B subunit/Amyloid beta A4 precursor protein-binding family A member 1 (Homo sapiens, UniProt Q00975+Q02410); assay type: protein assay
Sequence (Q00975 whole entry): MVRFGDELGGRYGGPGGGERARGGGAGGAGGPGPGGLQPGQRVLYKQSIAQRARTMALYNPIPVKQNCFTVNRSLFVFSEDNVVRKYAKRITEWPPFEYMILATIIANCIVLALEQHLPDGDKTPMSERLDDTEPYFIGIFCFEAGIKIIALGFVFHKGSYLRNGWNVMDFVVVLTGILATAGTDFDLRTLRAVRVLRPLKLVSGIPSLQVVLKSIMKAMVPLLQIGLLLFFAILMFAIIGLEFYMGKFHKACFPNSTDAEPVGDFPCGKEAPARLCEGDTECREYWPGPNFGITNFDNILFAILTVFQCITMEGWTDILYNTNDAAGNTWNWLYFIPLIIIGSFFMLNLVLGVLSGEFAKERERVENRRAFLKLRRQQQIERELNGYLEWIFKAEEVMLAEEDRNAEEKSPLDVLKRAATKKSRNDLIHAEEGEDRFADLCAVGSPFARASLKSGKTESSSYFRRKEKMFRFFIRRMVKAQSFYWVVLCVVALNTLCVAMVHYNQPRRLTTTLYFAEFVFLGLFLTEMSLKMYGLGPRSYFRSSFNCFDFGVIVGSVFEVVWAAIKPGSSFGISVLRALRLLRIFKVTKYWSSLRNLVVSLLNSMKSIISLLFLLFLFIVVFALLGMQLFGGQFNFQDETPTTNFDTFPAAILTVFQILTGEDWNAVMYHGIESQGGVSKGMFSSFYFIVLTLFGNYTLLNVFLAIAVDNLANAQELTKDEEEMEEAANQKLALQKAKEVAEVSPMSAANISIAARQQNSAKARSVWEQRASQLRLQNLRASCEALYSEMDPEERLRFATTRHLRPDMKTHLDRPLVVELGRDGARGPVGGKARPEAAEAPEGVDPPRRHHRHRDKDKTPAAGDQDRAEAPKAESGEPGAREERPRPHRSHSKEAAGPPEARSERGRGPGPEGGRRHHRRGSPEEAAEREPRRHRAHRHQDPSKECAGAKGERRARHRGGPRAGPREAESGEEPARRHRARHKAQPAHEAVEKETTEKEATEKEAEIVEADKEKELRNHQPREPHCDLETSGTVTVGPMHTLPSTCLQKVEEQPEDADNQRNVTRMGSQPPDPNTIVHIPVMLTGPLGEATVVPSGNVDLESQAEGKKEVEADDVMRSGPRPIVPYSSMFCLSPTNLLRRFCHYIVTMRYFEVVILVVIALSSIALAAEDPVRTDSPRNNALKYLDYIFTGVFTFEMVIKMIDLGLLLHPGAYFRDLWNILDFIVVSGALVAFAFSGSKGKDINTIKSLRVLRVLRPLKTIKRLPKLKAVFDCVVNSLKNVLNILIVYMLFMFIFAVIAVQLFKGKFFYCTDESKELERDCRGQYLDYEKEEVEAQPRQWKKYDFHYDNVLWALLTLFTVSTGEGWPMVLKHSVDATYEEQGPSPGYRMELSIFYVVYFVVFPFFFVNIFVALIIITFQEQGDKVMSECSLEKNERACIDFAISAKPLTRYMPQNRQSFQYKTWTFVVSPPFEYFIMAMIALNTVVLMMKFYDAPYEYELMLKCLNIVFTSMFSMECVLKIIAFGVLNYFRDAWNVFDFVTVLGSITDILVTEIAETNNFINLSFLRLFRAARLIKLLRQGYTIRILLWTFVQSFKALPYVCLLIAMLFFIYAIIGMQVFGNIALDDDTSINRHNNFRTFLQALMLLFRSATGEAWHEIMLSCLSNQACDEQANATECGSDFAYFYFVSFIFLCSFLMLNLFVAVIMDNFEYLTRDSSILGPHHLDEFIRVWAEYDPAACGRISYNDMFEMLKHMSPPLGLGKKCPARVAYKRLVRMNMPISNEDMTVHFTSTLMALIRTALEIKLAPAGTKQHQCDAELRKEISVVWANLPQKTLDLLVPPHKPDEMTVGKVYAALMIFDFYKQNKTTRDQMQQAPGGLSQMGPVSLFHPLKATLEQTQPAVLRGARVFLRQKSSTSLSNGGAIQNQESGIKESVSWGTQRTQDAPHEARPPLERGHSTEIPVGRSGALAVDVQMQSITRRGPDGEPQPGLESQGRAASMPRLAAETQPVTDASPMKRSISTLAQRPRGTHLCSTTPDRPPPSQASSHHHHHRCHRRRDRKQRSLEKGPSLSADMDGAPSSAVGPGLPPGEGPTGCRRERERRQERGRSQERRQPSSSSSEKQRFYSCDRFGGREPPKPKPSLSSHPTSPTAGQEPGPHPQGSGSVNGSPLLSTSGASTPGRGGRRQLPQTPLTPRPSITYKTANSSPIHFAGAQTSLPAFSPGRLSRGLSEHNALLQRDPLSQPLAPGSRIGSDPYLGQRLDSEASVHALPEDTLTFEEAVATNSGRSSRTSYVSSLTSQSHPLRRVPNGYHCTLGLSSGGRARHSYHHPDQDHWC
Sequence (Q02410 whole entry): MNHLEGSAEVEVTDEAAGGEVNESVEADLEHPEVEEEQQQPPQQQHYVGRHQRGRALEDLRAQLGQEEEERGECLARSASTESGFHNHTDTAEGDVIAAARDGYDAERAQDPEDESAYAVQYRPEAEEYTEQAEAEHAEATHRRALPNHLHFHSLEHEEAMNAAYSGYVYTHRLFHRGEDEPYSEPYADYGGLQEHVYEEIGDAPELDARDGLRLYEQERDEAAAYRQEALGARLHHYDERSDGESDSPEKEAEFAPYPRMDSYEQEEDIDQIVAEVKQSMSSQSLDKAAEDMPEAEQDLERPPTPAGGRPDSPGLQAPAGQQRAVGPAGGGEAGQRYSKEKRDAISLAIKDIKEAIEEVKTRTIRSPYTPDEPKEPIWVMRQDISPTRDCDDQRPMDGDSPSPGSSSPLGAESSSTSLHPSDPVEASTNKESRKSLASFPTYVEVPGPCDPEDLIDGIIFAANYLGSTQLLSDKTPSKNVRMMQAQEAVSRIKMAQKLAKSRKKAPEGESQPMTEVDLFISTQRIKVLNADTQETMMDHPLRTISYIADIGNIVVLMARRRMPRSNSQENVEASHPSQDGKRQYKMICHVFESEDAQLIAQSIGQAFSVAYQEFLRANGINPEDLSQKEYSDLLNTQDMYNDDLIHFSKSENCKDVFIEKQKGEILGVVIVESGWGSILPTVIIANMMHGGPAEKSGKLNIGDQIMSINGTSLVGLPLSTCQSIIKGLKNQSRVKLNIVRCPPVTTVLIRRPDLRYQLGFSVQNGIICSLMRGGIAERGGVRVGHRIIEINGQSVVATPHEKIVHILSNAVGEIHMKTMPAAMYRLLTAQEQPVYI
Activity calls are given as the source filed them.
Just give me one of these, please: true = active, false = inactive

*Q* # fetch the recorded call for `O=C(N/N=C/c1ccc(F)cc1)c1cc(-c2ccco2)nc2ccccc12` here
*A* true

*Q* Further, for `CCCc1cc(=O)oc2cc(OCC(=O)Nc3ccc(S(N)(=O)=O)cc3)ccc12` ?
*A* false

*Q* Further, for COc1cccc2c1NC(C(=O)O)C1CC=CC21 (stereo not given) ?
*A* true

*Q* Further, for `N#Cc1nc(-c2ccc(OCc3ccc(Cl)cc3)cc2)oc1N1CCC(C(N)=O)CC1` ?
*A* true

*Q* Further, for `O=C(Nc1ccc(S(=O)(=O)N2CCOCC2)cc1)c1ccc(O)nc1` ?
*A* false

###

test: Luminescence Cell-Based Dose Confirmation HTS to Identify Activators of 5'UTR Stem-Loop Driven Alpha-Synuclein mRNA Translation in H4 Neuroglioblastoma Cells. [Related pubchem assays: 1829 (Project Summary), 1814 (Primary HTS)]; assay type: functional
Activity calls are given as the source filed them.
attribute measured: EC50

*Q* Need EC50, item `c1ccc(-c2nc(C3CCCCC3)no2)cc1`
*A* 32.8 µM (active)

*Q* Further, for Cc1ccc(NC(=O)CSC2=C(C#N)C(c3ccco3)CC(=O)N2)cc1 (stereo not drawn) ?
*A* 0.908 µM (active)

*Q* Further, for `N#CC(C#N)=c1ccc2c(c1)NC1(CCCCC1)N=2` ?
*A* 1.55 µM (active)

*Q* Further, for `CCCN1CCC(=NNc2ccc(C(=O)O)cc2)CC1` ?
*A* 7.27 µM (active)

*Q* Further, for `COc1cc2[nH]c(C(=O)Nc3ccc(F)cc3)cc2c(OC)c1OC` ?
*A* > 120 µM (not active)

*Q* Further, for O=[N+]([O-])c1ccc(N/N=C2\CC3CC=CC23)cc1 (stereo not drawn) ?
*A* 15.2 µM (active)

*Q* Further, for `Cc1nc2ccc(C(=O)OCc3ccccc3Br)cc2nc1C` ?
*A* 10.8 µM (active)

*Q* Further, for `COc1cc2c(cc1NC(=O)CSc1nccn1C)oc1ccccc12` ?
*A* 13 µM (active)

###

biological target: Ubiquitin-conjugating enzyme E2 N (Homo sapiens); type: functional
Sequence (P61088 whole entry): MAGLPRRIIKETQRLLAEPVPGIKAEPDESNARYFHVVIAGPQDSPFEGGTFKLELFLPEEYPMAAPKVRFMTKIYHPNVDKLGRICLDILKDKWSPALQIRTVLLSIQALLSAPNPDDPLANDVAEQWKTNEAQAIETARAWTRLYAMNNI
Active and inactive are the calls of the source.
Just give me one of these, please: active, inactive

*Q* # fetch the recorded call for `O=C(Nc1ccc(C2=NCCN2)cc1)c1ccc(C(=O)Nc2ccc(C3=NCCN3)cc2)c([N+](=O)[O-])c1` here
*A* active

*Q* Further, for COc1cccc2c1NC(C(=O)O)C1CC=CC21 (stereo not given) ?
*A* inactive

*Q* Further, for `COc1cccc(NC(=O)CSc2nc3ccccc3c(=O)n2Cc2cccs2)c1` ?
*A* inactive

*Q* Further, for `C#CCOCCOCCOCCNc1nc(N2CCN(C(=O)[C@H](CCCCN)n3cc(CN)nn3)CC2)nc(N2CCN(C(=O)[C@H](CCCCN)n3cc([C@@H](N)[C@H](C)CC)nn3)CC2)n1` ?
*A* active

*Q* Further, for `Cc1nc(N)sc1C(=O)N/N=C/c1cccnc1` ?
*A* active

###

target: Cytochrome P450 2C19 (Homo sapiens); experiment: Cytochrome panel assay with activity outcomes. Panel member name: p450-cyp2c19 Compounds with AC50 equal or less than 10 uM are considered active; assay type: functional; conditions: read-out: AC50
Sequence (P33261 whole entry): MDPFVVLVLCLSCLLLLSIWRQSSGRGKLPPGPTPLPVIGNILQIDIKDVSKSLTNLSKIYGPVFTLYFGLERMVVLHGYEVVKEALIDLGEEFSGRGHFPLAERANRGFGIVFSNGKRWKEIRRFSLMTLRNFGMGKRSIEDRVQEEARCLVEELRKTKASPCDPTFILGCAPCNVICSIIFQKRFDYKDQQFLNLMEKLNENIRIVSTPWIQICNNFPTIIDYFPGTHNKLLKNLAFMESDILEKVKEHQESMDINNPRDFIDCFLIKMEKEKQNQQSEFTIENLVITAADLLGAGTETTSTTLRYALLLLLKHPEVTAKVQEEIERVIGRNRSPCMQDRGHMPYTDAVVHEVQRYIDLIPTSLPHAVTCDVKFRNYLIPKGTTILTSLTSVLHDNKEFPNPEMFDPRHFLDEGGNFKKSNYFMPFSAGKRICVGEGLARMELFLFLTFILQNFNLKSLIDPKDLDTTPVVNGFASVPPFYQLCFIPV
attribute measured: AC50

*Q* I'm curious: which AC50 was measured for CCCCC1(C)OC(=O)C(=Cc2ccc(N(C)C)cc2)C(=O)O1 (stereo unspecified) tested on Cytochrome P450 2C19 (Homo sapiens)?
*A* 28.2 µM (inconclusive)

*Q* Further, for `COCCNc1ncnc2ccc(-c3cccc(OC)c3)cc12` ?
*A* 2.51 µM (inconclusive)

*Q* Further, for COC(=O)C1(Cc2ccccc2)C=C2C(=C(C)C(=O)C2C)CN1 (stereo unspecified) ?
*A* 39.8 µM (inconclusive)

*Q* Further, for `CCNc1nc(Oc2c(Cl)cccc2Cl)cc(C(F)(F)F)n1` ?
*A* 2 µM (inconclusive)

*Q* Further, for `CC(C)C(=O)Nc1ccc(NC(=O)c2cccnc2)cn1` ?
*A* 7.08 µM (inconclusive)

*Q* Further, for `O=C(Nc1ccccc1)N[C@H]1C[C@H](C(=O)O)Nc2cc(Cl)cc(Cl)c21` ?
*A* 25.1 µM (inconclusive)

*Q* Further, for CCCCCn1c(CN2CCCCC2C)nc2c1c(=O)n(C)c(=O)n2C (stereo unspecified) ?
*A* 20 µM (inconclusive)

*Q* Further, for `COc1ccc(S(=O)(=O)N/N=C(/C)c2cccc(NC(=O)c3ccccc3Cl)c2)cc1` ?
*A* 0.398 µM (inconclusive)

*Q* Further, for `O=S(=O)(N/N=C\c1cccn1-c1ccccc1)c1ccc2ccccc2c1` ?
*A* 0.794 µM (inconclusive)

*Q* Further, for `O=C1/C(=C\c2ccc(Br)o2)S/C(=N/c2ccccc2)N1c1ccccc1` ?
*A* 7.94 µM (inconclusive)

*Q* Further, for `Cc1cc(NC(=O)CSc2nc3ccsc3c(=O)n2CCCCC(=O)O)no1` ?
*A* 3.98 µM (inconclusive)
